Molecular target: Gal4-RORγ-LBD (Homo sapiens)
Construct: expressed in transfected cells; host or cells: HEK-293 cells (pcDNA3.1neo plasmid)
Sequence (P51449 269-508 limits assumed): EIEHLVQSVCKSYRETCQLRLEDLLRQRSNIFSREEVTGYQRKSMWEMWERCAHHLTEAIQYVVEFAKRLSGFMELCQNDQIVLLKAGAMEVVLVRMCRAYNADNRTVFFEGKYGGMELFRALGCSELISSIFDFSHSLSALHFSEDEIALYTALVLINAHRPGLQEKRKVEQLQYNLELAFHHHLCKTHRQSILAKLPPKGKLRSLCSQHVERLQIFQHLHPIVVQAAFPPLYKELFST
Experiment: Gal4-RORγ Luciferase Reporter Assay in HEK-293T Cells
Type: cell-based
Conditions: HEK-293 cells, luciferase reporter, with 2 μM ursolic acid
// EC50 lookup, one value per entry

Before answering, review these 5 worked examples.
Compound	EC50
CC(C)Cn1cc(-c2ccc3c(c2)N(S(=O)(=O)c2cccc(C(F)(F)F)c2)C[C@H](CCC(=O)O)O3)cn1	> 10000 nM
COc1cccc(-c2ccc3c(c2)N(S(=O)(=O)c2cccc(C(F)(F)F)c2)C[C@H](CCC(=O)O)O3)n1	500 to 5000 nM
Cc1ccc(F)cc1-c1ccc2c(c1)N(S(=O)(=O)c1cccc(C(F)(F)F)c1)C[C@H](CCC(=O)O)O2	< 500 nM
CC(C)(C#N)C(=O)NC[C@H]1CN(S(=O)(=O)c2cccc(C(F)(F)F)c2)c2cc(-c3cc(F)ccc3F)ccc2O1 [Compound 30AQ]	< 500 nM
CCc1ccccc1-c1ccc2c(c1)N(S(=O)(=O)c1cccc(C(F)(F)F)c1)C[C@H](CCC(=O)O)O2	< 500 nM

compound `CCOc1cccc(-c2ccc3c(c2)N(S(=O)(=O)c2cccc(C(F)(F)F)c2)C[C@H](CCC(=O)O)O3)c1` , EC50 observed: 500 to 5000 nM

compound CC(C)c1cccc(S(=O)(=O)N2C[C@H](CCc3n[nH]c(=O)o3)Oc3ccc(-c4cccc(N(C)C)n4)cc32)c1 [Compound 28F] , EC50 observed: < 500 nM

compound COc1cc(F)cc(-c2ccc3c(c2)N(S(=O)(=O)c2cccc(C(F)(F)F)c2)C[C@H](CNC(=O)[C@@](C)(O)C(F)(F)F)O3)c1F [Compound 30BF] , EC50 observed: < 500 nM

compound O=C(CC[C@H]1CN(S(=O)(=O)c2cccc(C(F)(F)F)c2)c2cc(-c3cccc(C(F)(F)F)n3)ccc2O1)N1CCS(=O)(=O)CC1 [Compound 23G] , EC50 observed: < 500 nM

compound O=C(O)C1CCN(C(=O)NCC[C@H]2CN(S(=O)(=O)c3cccc(C(F)(F)F)c3)c3cc(-c4cc(F)ccc4F)ccc3O2)CC1 [Compound 23T] , EC50 observed: < 500 nM

compound O=C(O)[C@@H]1CCCN1C(=O)NCC[C@H]1CN(S(=O)(=O)c2cccc(C(F)(F)F)c2)c2cc(-c3cc(F)ccc3F)ccc2O1 [Compound 23V] , EC50 observed: 500 to 5000 nM

compound `CN(C)c1cccc(-c2ccc3c(c2)N(S(=O)(=O)c2cccc(C(F)(F)F)c2)C[C@H](CCCOc2noc(=O)[nH]2)O3)n1` , EC50 observed: < 500 nM

compound `COc1cc(S(=O)(=O)N2C[C@H](CCC(=O)O)Oc3ccc(-c4cccc(Cl)c4)cc32)ccc1F` , EC50 observed: 500 to 5000 nM
